B1: KLHL20 (parent)
chain: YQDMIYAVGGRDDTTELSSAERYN

Variants of: B1
method_notes: protein stability index of a GFP-peptide fusion (GPS, HEK-293T) (PSI 1-6); higher = more stable;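 further: lentivirally expressed fusions sorted by FACS into six bins by GFP to DsRed ratio, PSI derived from sequencing read proportions per bin multiplied by bin number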
condition_notes: c terminus: a fixed tail appended
For each record, write down the corresponding protein stability index.

See these solved cases before continuing.
>>> print(df.to_string())
                construct_sequence  test_result
0   FQDMIYAVGGRDDTTELSSAERYN [Y1F]         1.89
1   YQDMIYATGGRDDTTELSSAERYN [V8T]         2.41
2  YQDMIYAVGGRDDTTELSGAERYN [S19G]         2.32
3  YQDMIYAVGGRDDTTELSSAENYN [R22N]         1.92
4  YQDMIYAVGGRDDTTELSSAERSN [Y23S]         2.54
5   YQDYIYAVGGRDDTTELSSAERYN [M4Y]         2.77

Please give protein stability index, item by item, for the list that follows.
1. YQDMIYAVGGRDDTTELQSAERYN [S18Q]
2. YQDMIYAVGDRDDTTELSSAERYN [G10D]
3. YQDMIYAVGGRDDTQELSSAERYN [T15Q]

Result block:
1. 2.22
2. 2.81
3. 3.13
